Listed below: D2 pKi values for each entry.
Measured On: hD2 recombinant receptor (human dopamine receptor type 2, long variant, CHO-Gα16-hD2L membranes) (Homo sapiens (Human))
Experimental Setup: displacement of 0.08 nM [3H]-Spiperone
Readout Kind: D2 pKi

>>> val("Cl.Cn1c(SCCCN2CC[C@]3(C[C@@H]3c3ccc(C(F)(F)F)cc3)C2)nnc1-c1ccc[nH]c1=O")
5.48
>>> val("Cn1c(SCCCN2CC[C@]3(CC3c3ccc(C(F)(F)F)cc3)C2)nnc1-c1cccc(=O)[nH]1 (stereo partly shown)")
6.34
>>> val("Cn1c(SCCCN2CC[C@]3(CC3c3ccc(C(F)(F)F)cc3)C2)nnc1C1CCC(N)CC1 (stereo partly shown)")
6.72
>>> val("Cc1cncc(-c2nnc(SCCCN3CC[C@]4(CC4c4ccc(C(F)(F)F)cc4)C3)n2C)n1 (stereo partly shown)")
5.91
>>> val("Cn1c(SCCCN2CC[C@]3(CC3c3ccc(F)cc3F)C2)nnc1-c1ccc(=O)[nH]c1 (stereo partly shown)")
6.16
>>> val("Cl.Cn1c(SCCCN2CC[C@]3(C[C@@H]3c3ccc(C(F)(F)F)cc3)C2)nnc1C1CCC(=O)NC1 (stereo partly shown)")
5.92
>>> val("Cl.Cn1c(SCCCN2CC[C@]3(C[C@@H]3c3ccc(C(F)(F)F)cc3)C2)nnc1-c1cccn2cnnc12")
5.38

----------
Measured On: hD2 recombinant receptor (human dopamine receptor type 2, long variant, CHO-Gα16-hD2L membranes) (Homo sapiens (Human), UniProt P14416)
Experimental Setup: displacement of 0.08 nM [3H]-Spiperone
Readout Kind: D2 pKi

>>> val("Cc1nnsc1-c1nnc(SCCCN2CC[C@]3(C[C@@H]3c3ccc(C(F)(F)F)cc3)C2)n1C.Cl")
6.18
>>> val("Cn1c(SCCCN2CC[C@]3(CC3c3ccc(C(F)(F)F)cc3)C2)nnc1-c1ccc[nH]c1=O (stereo partly drawn)")
5.32
>>> val("COCCC(=O)N1CCC(c2nnc(SCCCN3CC[C@]4(C[C@@H]4c4ccc(C(F)(F)F)cc4)C3)n2C)CC1.Cl")
5.80
>>> val("CC(=O)N1CCC(c2nnc(SCCCN3CC[C@]4(C[C@@H]4c4ccc(C(F)(F)F)cc4F)C3)n2C)CC1.Cl")
6.00
>>> val("Cl.Cn1c(SCCCN2CC[C@]3(C[C@@H]3c3ccc(C(F)(F)F)cc3)C2)nnc1C1CCN(C(=O)C2CC2)CC1")
6.05
>>> val("CC(=O)N1CC(c2nnc(SCCCN3CC[C@]4(C[C@@H]4c4ccc(C(F)(F)F)cc4)C3)n2C)C1")
5.56
>>> val("Cc1nnc2ccc(-c3nnc(SCCCN4CC[C@]5(C[C@@H]5c5ccc(C(F)(F)F)cc5)C4)n3C)cn12")
5.91
>>> val("Cn1c(SCCCN2CC[C@]3(CC3c3ccccc3C(F)(F)F)C2)nnc1-c1cc[nH]c(=O)c1 (stereo partly drawn)")
6.54
>>> val("Cn1c(SCCCN2CC[C@]3(CC3c3ccc(C(F)(F)F)cc3F)C2)nnc1-c1ccc(=O)[nH]c1 (stereo partly drawn)")
6.35
>>> val("Cl.Cn1c(SCCCN2CC[C@]3(C[C@@H]3c3ccc(C(F)(F)F)cc3)C2)nnc1-c1ccc(-c2nnco2)cc1")
6.52
>>> val("Cn1c(SCCCN2CC[C@]3(CC3c3ccccc3C(F)(F)F)C2)nnc1-c1ccc(=O)[nH]c1 (stereo partly drawn)")
6.87
>>> val("CN(C)C(=O)c1cccc(-c2nnc(SCCCN3CC[C@]4(C[C@@H]4c4ccc(C(F)(F)F)cc4)C3)n2C)n1.Cl")
5.66
>>> val("Cn1c(SCCCN2CC[C@]3(CC3c3ccc(C(F)(F)F)cc3F)C2)nnc1-c1cccc(=O)[nH]1 (stereo partly drawn)")
6.00
>>> val("Cn1cccc1-c1nnc(SCCCN2CC[C@]3(CC3c3ccc(C(F)(F)F)cc3)C2)n1C (stereo partly drawn)")
6.26
>>> val("Cc1nccnc1-c1nnc(SCCCN2CC[C@]3(C[C@@H]3c3ccc(C(F)(F)F)cc3)C2)n1C")
5.85

Where do the numbers come from? From patent US10239870B2.
